assay: total protein half-life in vivo (active degradation + dilution); higher = more stable protein; conditions: wild type E. coli NCM3722; growth: N-lim chemostat; doubling time 12 h
Would you kindly list total protein half-life in vivo for each of these sequences?
Just the number in h, nothing appended.

Task: Please look up its total protein half-life in vivo: MLNKLSLLLKDAGISLTDHQKNQLIAYVNMLHKWNKAYNLTSVRDPNEMLVRHILDSIVVAPYLQGERFIDVGTGPGLPGIPLSIVRPEAHFTLLDSLGKRVRFLRQVQHELKLENIEPVQSRVEEFPSEPPFDGVISRAFASLNDMVSWCHHLPGEQGRFYALKGQMPEDEIALLPEEYQVESVVKLQVPALDGERHLVVIKANKI [P0A6U5]
Output: 8.45

Task: Follow-up entry: MAYFLDFDERALKEWRKLGSTVREQLKKKLVEVLESPRIEANKLRGMPDCYKIKLRSSGYRLVYQVIDEKVVVFVISVGKRERSEVYSEAVKRIL [P0C077]
Output: 3.73

Task: And the next one, MLNIVLYEPEIPPNTGNIIRLCANTGFRLHIIEPMGFAWDDKRLRRAGLDYHEFTAVTRHHDYRAFLEAENPQRLFALTTKGTPAHSAVSYQDGDYLMFGPETRGLPASILDALPAEQKIRIPMVPDSRSMNLSNAVSVVVYEAWRQLGYPGAVLRD [P0AGJ7] ?
Output: 8.21

Task: Now try MILIIYAHPYPHHSHANKRMLEQARTLEGVEIRSLYQLYPDFNIDIAAEQEALSRADLIVWQHPMQWYSIPPLLKLWIDKVFSHGWAYGHGGTALHGKHLLWAVTTGGGESHFEIGAHPGFDVLSQPLQATAIYCGLNWLPPFAMHCTFICDDETLEGQARHYKQRLLEWQEAHHG [P0A754] .
Output: 10.5

Task: Now try `MKLKNTLLASALLSAMAFSVNAATELTPEQAAAVKPFDRVVVTGRFNAIGEAVKAVSRRADKEGAASFYVVDTSDFGNSGNWRVVADLYKADAEKAEETSNRVINGVVELPKDQAVLIEPFDTVTVQGFYRSQPEVNDAITKAAKAKGAYSFYIVRQIDANQGGNQRITAFIYKKDAKKRIVQSPDVIPADSEAGRAALAAGGEAAKKVEIPGVATTASPSSEVGRFFETQSSKGGRYTVTLPDGTKVEELNKATAAMMVPFDSIKFSGNYGNMTEVSYQVAKRAAKKGAKYYHITRQWQERGNNLTVSADLYK` .
Output: 9.68

Task: And `MNSFNEGVVSPLLSFWRRSLMLAGALLLTACSHNSSLPPFTASGFAEDQGAVRIWRKDSGDNVHLLAVFSPWRSGDTTTREYRWQGDNLTLININVYSKPPVNIRARFDDRGDLSFMQRESDGEKQQLSNDQIDLYRYRADQIRQISDALRQGRVVLRQGRWHAMEQTVTTCEGQTIKPDLDSQAIAHIERRQSRSSVDVSVAWLEAPEGSQLLLVANSDFCRWQPNEKTF` ?
Output: 13.2

Task: Next entry: MSQLTHINAAGEAHMVDVSAKAETVREARAEAFVTMRSETLAMIIDGRHHKGDVFATARIAGIQAAKRTWDLIPLCHPLMLSKVEVNLQAEPEHNRVRIETLCRLTGKTGVEMEALTAASVAALTIYDMCKAVQKDMVIGPVRLLAKSGGKSGDFKVEADD [P0A738]
Output: 5.91

Task: # iterate: `MGGISIWQLLIIAVIVVLLFGTKKLGSIGSDLGASIKGFKKAMSDDEPKQDKTSQDADFTAKTIADKQADTNQEQAKTEDAKRHDKEQV`
Output: 9.53

Task: Request: `MVTFHTNHGDIVIKTFDDKAPETVKNFLDYCREGFYNNTIFHRVINGFMIQGGGFEPGMKQKATKEPIKNEANNGLKNTRGTLAMARTQAPHSATAQFFINVVDNDFLNFSGESLQGWGYCVFAEVVDGMDVVDKIKGVATGRSGMHQDVPKEDVIIESVTVSE`
Output: 7.49

Task: Thanks! And MNNMNVIIADDHPIVLFGIRKSLEQIEWVNVVGEFEDSTALINNLPKLDAHVLITDLSMPGDKYGDGITLIKYIKRHFPSLSIIVLTMNNNPAILSAVLDLDIEGIVLKQGAPTDLPKALAALQKGKKFTPESVSRLLEKISAGGYGDKRLSPKESEVLRLFAEGFLVTEIAKKLNRSIKTISSQKKSAMMKLGVENDIALLNYLSSVTLSPADKD [P0DMC7] ?
Output: 4.16

Task: Input MRKSVIAIIIIVLVVLYMSVFVVKEGERGITLRFGKVLRDDDNKPLVYEPGLHFKIPFIETVKMLDARIQTMDNQADRFVTKEKKDLIVDSYIKWRISDFSRYYLATGGGDISQAEVLLKRKFSDRLRSEIGRLDVKDIVTDSRGRLTLEVRDALNSGSAGTEDEVTTPAADNAIAEAAERVTAETKGKVPVINPNSMAALGIEVVDVRIKQINLPTEVSEAIYNRMRAEREAVARRHRSQGQEEAEKLRATADYEVTRTLAEAERQGRIMRGEGDAEAAKLFADAFSKDPDFYAFIRSLRAYENSFSGNQDVMVMSPDSDFFRYMKTPTSATR [P0ABC3]
Output: 12.7

Task: Try `MNIVVLISGNGSNLQAIIDACKTNKIKGTVRAVFSNKADAFGLERARQAGIATHTLIASAFDSREAYDRELIHEIDMYAPDVVVLAGFMRILSPAFVSHYAGRLLNIHPSLLPKYPGLHTHRQALENGDEEHGTSVHFVTDELDGGPVILQAKVPVFAGDSEDDITARVQTQEHAIYPLVISWFADGRLKMHENAAWLDGQRLPPQGYAADE` next.
Output: 9.87

Task: // query: `MRYSKLTMLIPCALLLSACTTVTPAYKDNGTRSGPCVEGGPDNVAQQFYDYRILHRSNDITALRPYLSDKLATLLSDASRDNNHRELLTNDPFSSRTTLPDSAHVASASTIPNRDARNIPLRVDLKQGDQGWQDEVLMIQEGQCWVIDDVRYLGGSVHATAGTLRQSIENR`
Output: 12.6

Task: What about `MSIRFARKADCAAIAEIYNHAVLYTAAIWNDQTVDADNRIAWFEARTLAGYPVLVSEENGVVTGYASFGDWRSFDGFRHTVEHSVYVHPDHQGKGLGRKLLSRLIDEARDCGKHVMVAGIESQNQASLHLHQSLGFVVTAQMPQVGTKFGRWLDLTFMQLQLDERTEPDAIG` ?
Output: 9.49
